# System: Recombinant Coprinus cinereus laccase (rCcL)
# protocol: Bleaching of methyl orange using rCcL and NOH-type enhancing agents (initial bleaching rate)
# Assay type: biochemical
# protocol conditions: pH 8; rCcL solution diluted 1:200; 0.2 mM mediator; 30° C.; large negative numbers = best performance
recorded metric: Initial changes per minute in A464 nm of methyl orange using rCcL (per minute)

- compound: "CC[n+]1ccc(-c2ccc(S(=O)(=O)[O-])cc2)o1.O"
  quantitative readout: "−0.001"
- compound: "On1nnc2ccccc21 [1-hydroxybenzotriazole, 1-Hydroxybenzotriazole]"
  quantitative readout: "−0.005"
- compound: "O=c1c2ccccc2nnn1O [3-hydroxy-1,2,3-benzotriazin-4(3H)-one, 3-Hydroxy-1,2,3-benzotriazin-4(3H)-one]"
  quantitative readout: "−0.002"
- compound: "CS(=O)(=O)c1ccc2ccn(OC(=O)c3ccccc3)c2c1"
  quantitative readout: 0.011
- compound: "O=C(c1ccccc1)N(O)c1ccccc1 [N-benzoyl-N-phenylhydroxylamine, N-Benzoyl-N-phenylhydroxylamine]"
  quantitative readout: "−0.124"
- compound: "O=c1[nH]c(=O)[nH]c(=O)[nH]1"
  quantitative readout: "−0.005"
- compound: "CCOc1ccc(N=[N+]([O-])c2ccc(OCC)cc2)cc1"
  quantitative readout: 0.019
- compound: "[O-][n+]1ccc2ccccc2c1 [Iso-quinoline-N-oxide]"
  quantitative readout: "−0.004"
- compound: "[O-][n+]1cccc2ccccc21 [Quinoline-N-oxide]"
  quantitative readout: "−0.004"
- compound: "CC(=O)N(O)c1ccccc1 [N-hydroxyacetanilide, N-Hydroxyacetanilide]"
  quantitative readout: "−0.136"
- compound: "ON=C(c1ccccn1)c1ccccn1"
  quantitative readout: "−0.001"
- compound: "O=C1c2ccccc2C(=O)N1O [N-hydroxyphthalimide]"
  quantitative readout: "−0.004"
